target: HLA-B*46:01; test: IEDB peptide-MHC binding, purified MHC/competitive/fluorescence; filed as Kd, often an IC50 or EC50 that approximates it; bounds were set here for any values at or beyond the usual limits of such assays; conditions: source organism: Corynebacterium glutamicum ATCC 13032
pKd: −log10 of the molar value.
parameterMeasured: pKd

• HLPELIWRS = ≤ 4.70

* * *

target: HLA-B*35:01; experiment: IEDB peptide-MHC binding, purified MHC/competitive/radioactivity; filed as Kd, often an IC50 or EC50 that approximates it; bounds were set here for any values at or beyond the usual limits of such assays; details: source organism: Dengue virus 2 Jamaica/1409/1983
pKd: −log10 of the molar value.
parameterMeasured: pKd

- MMATIGIAL: 5.95

* * *

biological target: HLA-A*29:02; assay: IEDB peptide-MHC binding, purified MHC/competitive/fluorescence; filed as Kd, often an IC50 or EC50 that approximates it; bounds were set here for any values at or beyond the usual limits of such assays; settings: source organism: Salmonella enterica subsp. enterica serovar Typhi
pKd: −log10 of the molar value.
parameterMeasured: pKd

* NTDEIPELI | ≤ 4.70

* * *

molecular target: HLA-B*07:02; test: IEDB peptide-MHC binding, purified MHC/competitive/radioactivity; filed as Kd, often an IC50 or EC50 that approximates it; bounds were set here for any values at or beyond the usual limits of such assays; conditions: source organism: Dengue virus 3 Martinique/1243/1999
parameterMeasured: Kd (nM)

* LPWTSGATT | 25.8
* RPISEKEENM | 135

* * *

target: HLA-B*58:01; experiment: IEDB peptide-MHC binding, purified MHC/competitive/fluorescence; filed as Kd, often an IC50 or EC50 that approximates it; bounds were set here for any values at or beyond the usual limits of such assays; conditions: source organism: Salmonella enterica subsp. enterica serovar Typhi
parameterMeasured: Kd (µM)

- MSAIVSCRY: 0.0275

* * *

target: HLA-A*29:02; test: IEDB peptide-MHC binding, purified MHC/competitive/fluorescence; filed as Kd, often an IC50 or EC50 that approximates it; bounds were set here for any values at or beyond the usual limits of such assays; details: source organism: Encephalitozoon cuniculi GB-M1
pKd: −log10 of the molar value.
parameterMeasured: pKd

* IVNMGNPDY | 7.26

* * *

biological target: HLA-A*02:19; experiment: IEDB peptide-MHC binding, purified MHC/direct/fluorescence; filed as Kd, often an IC50 or EC50 that approximates it; bounds were set here for any values at or beyond the usual limits of such assays; details: source organism: Dengue virus 2 Thailand/16681/84
pKd: −log10 of the molar value.
parameterMeasured: pKd

- KMDIGVPLL: 7.80

* * *

target: HLA-A*02:01; assay: IEDB peptide-MHC binding, purified MHC/direct/fluorescence; filed as Kd, often an IC50 or EC50 that approximates it; bounds were set here for any values at or beyond the usual limits of such assays; details: source organism: Vibrio parahaemolyticus
parameterMeasured: Kd

• YREAGIPVL = ≥ 20 µM

* * *

biological target: HLA-B*51:01; assay: IEDB peptide-MHC binding, purified MHC/direct/fluorescence; filed as Kd, often an IC50 or EC50 that approximates it; bounds were set here for any values at or beyond the usual limits of such assays; conditions: source organism: Escherichia coli O157:H7
pKd: −log10 of the molar value.
parameterMeasured: pKd

• ESMMGSTAM = ≤ 4.70

* * *

target: HLA-B*58:01; assay: IEDB peptide-MHC binding, purified MHC/competitive/fluorescence; filed as Kd, often an IC50 or EC50 that approximates it; bounds were set here for any values at or beyond the usual limits of such assays; conditions: source organism: Yersinia pestis CO92
parameterMeasured: Kd

- QQRPDLILV: ≥ 5 µM

* * *

target: HLA-B*51:01; experiment: IEDB peptide-MHC binding, purified MHC/competitive/fluorescence; filed as Kd, often an IC50 or EC50 that approximates it; bounds were set here for any values at or beyond the usual limits of such assays; conditions: source organism: Sudan ebolavirus
pKd: −log10 of the molar value.
parameterMeasured: pKd

• YTENTSSYY = ≤ 4.70

* * *

target: HLA-A*24:03; test: IEDB peptide-MHC binding, purified MHC/competitive/fluorescence; filed as Kd, often an IC50 or EC50 that approximates it; bounds were set here for any values at or beyond the usual limits of such assays; details: source organism: Vibrio vulnificus CMCP6
pKd: −log10 of the molar value.
parameterMeasured: pKd

• LEMNDAPTA = ≤ 4.70

* * *

biological target: HLA-B*45:01; assay: IEDB peptide-MHC binding, purified MHC/competitive/radioactivity; filed as Kd, often an IC50 or EC50 that approximates it; bounds were set here for any values at or beyond the usual limits of such assays; details: source organism: Mammarenavirus guanaritoense
pKd: −log10 of the molar value.
parameterMeasured: pKd

- LEREQIPTLI: 5.01

* * *

target: HLA-A*24:03; test: IEDB peptide-MHC binding, purified MHC/direct/fluorescence; filed as Kd, often an IC50 or EC50 that approximates it; bounds were set here for any values at or beyond the usual limits of such assays; conditions: source organism: Entamoeba histolytica HM-1:IMSS
parameterMeasured: Kd (nM)

• QYIHLLCNK = 1110

* * *

biological target: HLA-A*11:01; assay: IEDB peptide-MHC binding, purified MHC/direct/fluorescence; filed as Kd, often an IC50 or EC50 that approximates it; bounds were set here for any values at or beyond the usual limits of such assays; details: source organism: Yellow fever virus 17D
parameterMeasured: Kd (µM)

- RVDGLELKK: 0.0188

* * *

target: HLA-A*02:10; assay: IEDB peptide-MHC binding, purified MHC/direct/fluorescence; filed as Kd, often an IC50 or EC50 that approximates it; bounds were set here for any values at or beyond the usual limits of such assays; conditions: source organism: Escherichia coli O157:H7 str. EC869
pKd: −log10 of the molar value.
parameterMeasured: pKd

• ESMMGSTAM = ≤ 4.70

* * *

target: HLA-B*57:01; experiment: IEDB peptide-MHC binding, purified MHC/direct/fluorescence; filed as Kd, often an IC50 or EC50 that approximates it; bounds were set here for any values at or beyond the usual limits of such assays; conditions: source organism: Salmonella enterica subsp. enterica serovar Typhimurium str. LT2
pKd: −log10 of the molar value.
parameterMeasured: pKd

* FKYDSTKPL | ≤ 4.70

* * *

target: HLA-A*32:01; experiment: IEDB peptide-MHC binding, purified MHC/competitive/radioactivity; filed as Kd, often an IC50 or EC50 that approximates it; bounds were set here for any values at or beyond the usual limits of such assays; details: source organism: Mammarenavirus tacaribeense
pKd: −log10 of the molar value.
parameterMeasured: pKd

- HYDQKLGSY: 4.71

* * *

target: HLA-A*01:01; experiment: IEDB peptide-MHC binding, purified MHC/competitive/radioactivity; filed as Kd, often an IC50 or EC50 that approximates it; bounds were set here for any values at or beyond the usual limits of such assays; settings: source organism: Lymphocytic choriomeningitis virus (strain Armstrong)
pKd: −log10 of the molar value.
parameterMeasured: pKd

* YEDKVWDKY | 5.15

* * *

molecular target: HLA-B*44:03; assay: IEDB peptide-MHC binding, purified MHC/competitive/radioactivity; filed as Kd, often an IC50 or EC50 that approximates it; bounds were set here for any values at or beyond the usual limits of such assays; details: source organism: Dengue virus 1 Brazil/97-11/1997
parameterMeasured: Kd

• LENIMWKQI = 204 nM

* * *

target: HLA-B*57:01; experiment: IEDB peptide-MHC binding, purified MHC/direct/fluorescence; filed as Kd, often an IC50 or EC50 that approximates it; bounds were set here for any values at or beyond the usual limits of such assays; details: source organism: Francisella tularensis subsp. holarctica LVS
pKd: −log10 of the molar value.
parameterMeasured: pKd

* EFKQILTDF | ≤ 4.70

* * *

molecular target: HLA-B*58:01; test: IEDB peptide-MHC binding, purified MHC/competitive/fluorescence; filed as Kd, often an IC50 or EC50 that approximates it; bounds were set here for any values at or beyond the usual limits of such assays; conditions: source organism: Rickettsia akari str. Hartford
parameterMeasured: Kd

- FTARIIIFS: ≥ 5 µM

* * *

target: HLA-B*57:01; experiment: IEDB peptide-MHC binding, purified MHC/competitive/fluorescence; filed as Kd, often an IC50 or EC50 that approximates it; bounds were set here for any values at or beyond the usual limits of such assays; settings: source organism: Vaccinia virus WR
pKd: −log10 of the molar value.
parameterMeasured: pKd

* KVFDKSLLY | 6.37

* * *

target: HLA-A*24:03; test: IEDB peptide-MHC binding, purified MHC/competitive/fluorescence; filed as Kd, often an IC50 or EC50 that approximates it; bounds were set here for any values at or beyond the usual limits of such assays; settings: source organism: Salmonella enterica subsp. enterica serovar Choleraesuis str. SC-B67
parameterMeasured: Kd

• GIALAVPCV = ≥ 20 µM
